- Target desc: human GLP-1 receptor (human, UniProt P43220 24-463)
- Procedure summary: cell-based or functional assay
Ends that are not written are not given here.
Listed binders paired with reported cAMP EC50
Measured attribute: cAMP EC50 (nM)

{"Binder": "IP266 (Fc fusion) YSEGTFTSDYSKLLEEEAVRLFIEWLLAGAPPGGSGGGGSGGGGSGGGGSATHTCPPCPAPEF", "Unit annotation": "nM", "Numeric value": 0.15}
{"Binder": "IP403 (Fc fusion) YSEGTHTSDLRILLEEEAVRLFIEKLLAGGGSGGGGSGGGGSGGGGSGGGGSGGGGSGGGGSGGGGSACPPC", "Unit annotation": "nM", "Numeric value": 960}
{"Binder": "IP253 (Fc fusion) YSEGTFTSDYSKLLDEEAVRLFIEWLLAGAPPGGSGSTASSGSGSATGGGGAATHTCPPCPAPEF", "Unit annotation": "nM", "Numeric value": 0.26}
{"Binder": "IP235 (Fc fusion, cysteine pairing not given here; also: fused to IgG1-TM Fc) YSEGTFTSDYSKLLEEEAVRLFIEWLVKGPGGGGGSGGGGSATHTCPPCPAPEF", "Unit annotation": "nM", "Numeric value": 0.23}
{"Binder": "IP362 (Fc fusion) YSEGTFTSDYMMLKEEEAVRLFIEWLLAGGGGGGSGGGGSGGGGSGGGGSATHTCPPC", "Unit annotation": "nM", "Numeric value": 1.7}
